Biological target: T1, GST-SCRIB PDZ domain 2 (UniProt Q14160 862-950)
T1 construct: scribble (SCRIB), PDZ domain 2 alone; also called SCRIB PDZ2; PDZ2; source: E. coli Rosetta (DE3), purified (glutathione agarose); not shown: GST, N-terminal, kept
T1 sequence (looked up): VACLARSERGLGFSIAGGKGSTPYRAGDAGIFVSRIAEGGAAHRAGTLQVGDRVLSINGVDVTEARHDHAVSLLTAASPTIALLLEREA
Assay: BLI; Octet Red 96; 50 nM biotin-labeled α1D-CT peptide immobilised on streptavidin probes, then biocytin; serial dilutions of purified PDZ proteins as analytes until steady state; 20 mM Tris-HCl pH 8.0, 200 mM NaCl, 0.1% bovine serum albumin
Settings: both partners purified
Ends that are not written are not given here.
ASSAY_METRIC: Kd (µM)
Lab book: enter the figure in µM, no units written.

Task: Requested read-out: Kd. Entry: GATCQAYELADYSNLRETDI (peptide, UniProt P25100 553-572, looked up, also: biotin label (position not given here), α1D-adrenergic receptor, distal (last) 20 amino acids of the C-terminus; also called α1D-CT; α1D-AR C-terminal PDZ ligand; source: synthetic peptide, bought: BioMatik) [biotin-labeled peptide containing the last 20 amino acids of the α1D-adrenergic receptor C-terminus]
Output: 14.9
